Assay: sensitizers of A549 cells to miR-34 induction, primary screen, imaging, A549 dox-inducible miR-34, nuclei and caspase counts (AID 1347080)
Details: A549 miR-34 inducible, Hoechst nuclei count, 48 h; stronger effect = lower value
Metric name: fold change
// response body must contain only the number

As a guide, the following entries are already answered.
COc1cc(-n2c(=S)[nH]c3ccccc3c2=O)c(Cl)cc1Cl ... 0.878
C[C@]12CCC(=O)C=C1C=CC1C2CC[C@@]2(C)C1CC[C@@]2(O)CCC(=O)O (some centres undefined) ... 0.912
CCNC(=O)[C@H]1O[C@@H](n2cnc3c(N)ncnc32)C(O)[C@H]1O (some centres undefined) ... 1.03

Turning to the following compound.
Lookup: Entry C[C@H]1O[C@H](OC2[C@@H](O)[C@@H](O)C(O)[C@H](O)[C@H]2O)[C@@H](N)C[C@@H]1N=C(N)C(=O)O (some centres undefined) needs its fold change filled in; supply it.
Found: 0.847

====

Experiment: decreased DLD-1 cellular survival, CellTiter-Glo luminescent readout, NPC compound collection, primary HTS (AID 1117346)
Conditions: DLD-1 viability, CellTiter-Glo luminescence; at 20 µM (top of the series)
Below, each entry is listed with its recorded viability decrease (inhibition).
Give a bare numeral; the unit % is implied.

As a guide, the following entries are already answered.
O=c1n(Cl)c(=O)n(Cl)c(=O)n1Cl ... -0.1
Oc1ccc(Cl)cc1Cc1ccccc1 ... 85.4
O=c1oc2ccccc2c(O)c1C(CC(O)c1ccc(-c2ccc(Br)cc2)cc1)c1ccccc1 (configuration not stated) ... 103
CN1C2CCC(C)(C)C1CC(OC(=O)C(O)(c1cccs1)c1cccs1)C2 (configuration not stated) ... 27.7
CN[C@@H](C)[C@H](O)c1ccccc1 ... -4.6

Lookup: Entry COC1CC(=C(c2cccs2)c2cccs2)C[N+](C)(C)C1 (configuration not stated) needs its viability decrease (inhibition) filled in; supply it.
Found: -0.4

Lookup: Entry O=C(O)COc1ccccc1 needs its viability decrease (inhibition) filled in; supply it.
Found: -15.4

====

Below, each entry is listed with its recorded activity remaining.
Test system: Aerobactin synthetase IucA (Klebsiella pneumoniae hvKP1)
Assay: Biochemical IucA enzyme inhibition primary screen of the Spectrum library (AID 1346200);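 further: 100% = wells without compound and 0% = wells lacking enzyme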
Settings: malachite green pyrophosphate, A620, at 8 µM, stronger effect = lower value
Activity calls are given as the source filed them. The rule behind the calls is not given here.

As a guide, the following entries are already answered.
COC1=C[C@@H]2[C@@H]3Cc4ccc(OC)c(O)c4[C@]2(CCN3C)CC1=O ... 94.1% (inactive)
CCN(CC)C(C)CN1c2ccccc2Sc2ccccc21 (stereo unspecified) ... 109% (inactive)
OCC(O)C(O)C(O)C(O)C(O)CO (stereo unspecified) ... 93% (inactive)

Lookup: Entry C[C@H]1O[C@H](O[C@H]2[C@H](O)[C@@H](O)[C@@H](O[C@H]3[C@H](O)[C@@H](O)C(O)O[C@@H]3CO)O[C@@H]2CO)[C@H](O)[C@@H](O)[C@@H]1N[C@H]1C=C(CO)[C@@H](O)[C@H](O)[C@H]1O (stereo partly specified) needs its activity remaining filled in; supply it.
Found: 107% (inactive)

Lookup: Entry CC(=O)O[C@H]1CC[C@@]2(C)C(C[C@@H](OC(C)=O)[C@@]3(C)C4=CC(=O)O[C@@H](c5ccoc5)[C@]4(C)CCC23)C1(C)C (stereo partly specified) needs its activity remaining filled in; supply it.
Found: 89.5% (inactive)

====

Below, each entry is listed with its recorded z-score.
Assay: survival rescue of mitochondrial mutant cells in low glucose, primary screen, MELAS cybrids, Rieske KO mouse fibroblasts, CellTiter-Glo (AID 1508586);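 further: z relative to plate mean and SD of compound and empty wells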
Details: Rieske KO mouse fibroblast survival, CellTiter-Glo 72 h
// response body must contain only the number

As a guide, the following entries are already answered.
CCNc1nc(Cl)nc(NC(C)C)n1 ... -0.553
CC=C(C)C(=O)NC(c1ccccc1)C(O)C(=O)OC1C[C@@]2(O)C(OC(=O)c3ccccc3)[C@@H]3[C@]4(OC(C)=O)COC4CC(O)[C@@]3(C)C(=O)C(OC(C)=O)C(=C1C)C2(C)C (stereo partly drawn) ... 0.0967
N[C@@H](Cc1ccc(N(CCCl)CCCl)cc1)C(=O)O ... -1.05

Lookup: Entry Cc1cc(C(=O)CN2CCCC2)c(C)n1-c1ccc(F)cc1 needs its z-score filled in; supply it.
Found: 0.483

Lookup: Entry CC(C)c1c(CN(C)C(C)Cc2ccccc2)n(C)n(-c2ccccc2)c1=O (stereo not drawn) needs its z-score filled in; supply it.
Found: 0.158

Lookup: Entry Cc1ccc(C(C)Nc2ncnc3sccc23)cn1 (stereo not drawn) needs its z-score filled in; supply it.
Found: -0.439

Lookup: Entry C[C@]12CC[C@H](O)C[C@H]1CC[C@@H]1[C@@H]2CC[C@]2(C)[C@@H](C3=CC(=O)OC3)CC[C@]12O needs its z-score filled in; supply it.
Found: 0.0544

Lookup: Entry CC(=O)NC1CCSC1=O (stereo not drawn) needs its z-score filled in; supply it.
Found: -0.982

Lookup: Entry CC(=O)O[C@@]12CO[C@@H]1CC(O)[C@@]1(C)C(=O)C(O)C3=C(C)C(O)C[C@@](O)(C(OC(=O)c4ccccc4)[C@H]21)C3(C)C (stereo partly drawn) needs its z-score filled in; supply it.
Found: 1.02

Lookup: Entry C[C@]12CCC(O)C[C@@H]1CC[C@@H]1[C@H]2CC[C@]2(C)C(=O)CC[C@@H]12 (stereo partly drawn) needs its z-score filled in; supply it.
Found: -0.417

====

Test: stimulators of insulin release from INS-1E, primary screen, cell-based, 5 mM glucose, NPC library (AID 1117329); further: reference of the scale not given here
Settings: rat INS-1E insulin secretion, at 10 µM, stronger effect = higher value
Below, each entry is listed with its recorded insulin secretion stimulation.
Give a bare numeral; the unit % is implied.

As a guide, the following entries are already answered.
N[C@@H](Cc1ccc(N(CCCl)CCCl)cc1)C(=O)O ... -2.1
CCC1(c2cccc(O)c2)CCCCN(C)C1 (centres undefined) ... 19.8
CC1=C2[C@H]3OC(=O)[C@@H](C)[C@@H]3CC[C@@]2(C)C=CC1=O ... 0

Lookup: Entry CCOP(=S)(OCC)O/N=C(\C#N)c1ccccc1 needs its insulin secretion stimulation filled in; supply it.
Found: -1.4

Lookup: Entry CC(NC(C)(C)C)C(=O)c1cccc(Cl)c1 (centres undefined) needs its insulin secretion stimulation filled in; supply it.
Found: 0.3

Lookup: Entry CC(=O)O[C@H]1C[C@H](O[C@H]2[C@@H](O)C[C@H](O[C@@H]3[C@@H](O)C[C@H](O[C@H]4CC[C@@]5(C)[C@H](CC[C@@H]6[C@H]5C[C@@H](O)[C@]5(C)[C@@H](C7=CC(=O)OC7)CC[C@]65O)C4)O[C@@H]3C)O[C@@H]2C)O[C@H](C)[C@H]1O[C@@H]1O[C@H](CO)[C@@H](O)[C@H](O)[C@@H]1O needs its insulin secretion stimulation filled in; supply it.
Found: 0.8

Lookup: Entry CCCN(CCC)C(=O)Cc1c(-c2ccc(Cl)cc2)nc2ccc(Cl)cn12 needs its insulin secretion stimulation filled in; supply it.
Found: 11.7

Lookup: Entry CC(C)=CC1C(C(=O)OCc2cccc(Oc3ccccc3)c2)C1(C)C (centres undefined) needs its insulin secretion stimulation filled in; supply it.
Found: 2.9

====

Below, each entry is listed with its recorded remaining activity.
Tested on: Aerobactin synthetase IucA (Klebsiella pneumoniae, hypervirulent)
Experiment: IucA enzyme inhibition, biochemical, LOPAC library, absorbance readout (AID 1346212);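 further: 100% = no compound wells and 0% = no enzyme wells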
Settings: IucA enzyme assay, absorbance (OD) readout; stronger effect = lower value; concentration not given here
Give a bare numeral; the unit % is implied.

Lookup: Entry c1ccc2c(c1)CC(N1CCN(c3cccc4c3OCCO4)CC1)C2 needs its remaining activity filled in; supply it.
Found: 108

Lookup: Entry Clc1ccc(N2CC3CCC(C2)N3)nn1 needs its remaining activity filled in; supply it.
Found: 90.4

Lookup: Entry Cc1ccc(C(=O)Nc2ccc(S(=O)(=O)O)c3cc(S(=O)(=O)O)cc(S(=O)(=O)O)c23)cc1NC(=O)c1cccc(NC(=O)Nc2cccc(C(=O)Nc3cc(C(=O)Nc4ccc(S(=O)(=O)O)c5cc(S(=O)(=O)O)cc(S(=O)(=O)O)c45)ccc3C)c2)c1 needs its remaining activity filled in; supply it.
Found: 34.4

Lookup: Entry Nc1ncnc2c1ncn2[C@@H]1O[C@H](COP(=O)(O)CP(=O)(O)OP(=O)(O)O)[C@H](O)C1O (stereo partly specified) needs its remaining activity filled in; supply it.
Found: 111

Lookup: Entry CCCCNc1cc(C(=O)O)cc(S(N)(=O)=O)c1Oc1ccccc1 needs its remaining activity filled in; supply it.
Found: 109

Lookup: Entry O=C(Cc1ccc(Cl)c(Cl)c1)OCCN1CCCC1 needs its remaining activity filled in; supply it.
Found: 117
